Numbers sourced from patent US5461036A.

# Procedure summary: in vivo
# Design: species or system nude mice (BALB/c nu/nu)
# Setup conditions: mouse, in vivo; intravenous, continuous 5 days, nude mice; maximum dose at which no animal was dead within 2 weeks; read-out: Maximum tolerated dose
Assay readout: MTD at 336 h (mg/kg/day)
Express your answer in mg/kg/day, writing the number without its unit.

Sample records with MTD at 336 h:
- Compound: "C=CCCCCCCCCCC(=O)NCC(=O)N[C@@H]1[C@@H](O)[C@@H](O)[C@@H](Nc2ncnc3[nH]cnc23)O[C@H]1C(O)CO (stereo partly drawn) [SPK44]"
  MTD at 336 h [mg/kg/day]: 4
- Compound: "O=C(CCCCCCCCCCBr)NCC(=O)N[C@@H]1[C@@H](O)[C@@H](O)[C@@H](Nc2ncnc3[nH]cnc23)O[C@H]1C(O)CO (stereo partly drawn) [SPK64]"
  MTD at 336 h [mg/kg/day]: 18

Consider the record given below.
// Input: CCCCCCCCCCCC(=O)NCC(=O)NC1C(O)C(O)C(Nc2ncnc3[nH]cnc23)OC1C(O)CO (stereo not drawn) [SPM8, reference compound] . Output its MTD at 336 h only.
10.4
